target: T1, murine GPC3-his protein (Sino Biological, Cat. No. 50989-M08B) (murine, UniProt Q8CFZ4 25-558); experiment: ELISA, coated murine GPC3-His;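 further: antigen coated on plates at 1 µg/mL, test antibody bound for 2 h at 37 °C, detected with HRP-conjugated secondary antibody and TMB substrate after acid stop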
T1 construct: Bought protein; also called murine GPC3 protein
T1 sequence (Q8CFZ4 25-558 limits assumed): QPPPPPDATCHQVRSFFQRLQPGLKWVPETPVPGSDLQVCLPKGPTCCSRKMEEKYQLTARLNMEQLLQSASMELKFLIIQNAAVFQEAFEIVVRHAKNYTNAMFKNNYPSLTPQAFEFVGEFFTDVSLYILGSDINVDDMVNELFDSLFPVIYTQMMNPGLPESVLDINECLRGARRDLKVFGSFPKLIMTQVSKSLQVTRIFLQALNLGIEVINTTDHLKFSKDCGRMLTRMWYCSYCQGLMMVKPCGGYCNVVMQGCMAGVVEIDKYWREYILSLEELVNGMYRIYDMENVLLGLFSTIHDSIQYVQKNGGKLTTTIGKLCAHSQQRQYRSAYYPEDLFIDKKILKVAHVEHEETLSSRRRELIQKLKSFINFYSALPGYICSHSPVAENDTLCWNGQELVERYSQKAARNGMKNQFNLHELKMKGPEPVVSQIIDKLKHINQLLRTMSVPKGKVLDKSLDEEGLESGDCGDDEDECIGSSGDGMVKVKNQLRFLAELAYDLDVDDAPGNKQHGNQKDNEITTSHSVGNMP
Lab note: anything with OD450 at 10 nM antibody at or over 1 OD450 nm counts as 1; the rest go in -1.

Kindly determine if OD450 at 10 nM antibody recorded for F1.42.8 human-murine chimeric antibody (antibody, human IgG1, kappa, V domains shown) VH: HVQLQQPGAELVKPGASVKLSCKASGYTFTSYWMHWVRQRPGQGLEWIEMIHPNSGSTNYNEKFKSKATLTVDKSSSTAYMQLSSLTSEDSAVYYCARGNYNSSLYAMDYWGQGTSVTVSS VL: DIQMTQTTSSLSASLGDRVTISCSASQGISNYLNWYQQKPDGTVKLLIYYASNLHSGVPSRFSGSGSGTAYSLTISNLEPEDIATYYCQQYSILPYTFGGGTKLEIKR is above or exactly 1 OD450 nm.
1

For this binder, is measured OD450 at 10 nM antibody 1 OD450 nm or higher? F1.21.8 human-murine chimeric antibody (antibody, human IgG1, kappa, V domains shown) VH: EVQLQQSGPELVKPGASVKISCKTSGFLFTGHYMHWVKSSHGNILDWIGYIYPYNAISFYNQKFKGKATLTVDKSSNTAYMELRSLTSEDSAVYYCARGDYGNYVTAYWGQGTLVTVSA VL: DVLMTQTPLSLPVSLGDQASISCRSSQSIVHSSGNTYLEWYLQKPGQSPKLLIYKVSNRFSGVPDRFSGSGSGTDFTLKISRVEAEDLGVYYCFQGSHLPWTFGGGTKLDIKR
1

API: above_or_equal(metric=OD450 at 10 nM antibody, cutoff=1 OD450 nm) for item F1.41.17 human-murine chimeric antibody (antibody, human IgG1, kappa, V domains shown) VH: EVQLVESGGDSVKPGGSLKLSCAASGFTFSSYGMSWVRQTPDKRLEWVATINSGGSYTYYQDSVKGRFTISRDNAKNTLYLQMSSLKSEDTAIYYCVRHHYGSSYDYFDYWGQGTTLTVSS VL: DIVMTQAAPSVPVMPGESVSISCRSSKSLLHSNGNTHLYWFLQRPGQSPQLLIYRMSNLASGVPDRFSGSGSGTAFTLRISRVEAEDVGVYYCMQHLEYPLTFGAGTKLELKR
-1

OD450 at 10 nM antibody >= 1 OD450 nm for F4.26.1 human-murine chimeric antibody (antibody, human IgG1, kappa, V domains shown) VH: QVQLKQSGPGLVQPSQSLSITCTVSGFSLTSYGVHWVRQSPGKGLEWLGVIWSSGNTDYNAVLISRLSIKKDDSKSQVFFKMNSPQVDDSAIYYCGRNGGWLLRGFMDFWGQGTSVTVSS VL: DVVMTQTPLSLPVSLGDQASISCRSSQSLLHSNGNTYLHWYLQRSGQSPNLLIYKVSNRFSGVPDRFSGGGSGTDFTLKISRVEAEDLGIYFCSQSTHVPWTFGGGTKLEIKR ?
1

Check this binder for OD450 at 10 nM antibody at or above 1 OD450 nm: F2.39.2 human-murine chimeric antibody (antibody, human IgG1, kappa, V domains shown) VH: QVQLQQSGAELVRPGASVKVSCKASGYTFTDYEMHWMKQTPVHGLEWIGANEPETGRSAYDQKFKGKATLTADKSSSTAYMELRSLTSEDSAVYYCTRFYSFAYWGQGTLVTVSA VL: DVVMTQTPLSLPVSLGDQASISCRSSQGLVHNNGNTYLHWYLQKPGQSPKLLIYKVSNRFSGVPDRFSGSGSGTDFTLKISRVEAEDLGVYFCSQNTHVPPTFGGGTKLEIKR
-1

Source listed as patent US20260116991A1.
